This collection of values is drawn from patent US11753407B2.

Listing of recorded EC (1.5-fold increase) by entry.
tested on: SMN2 minigene mRNA (SMN2-A minigene) in HEK293H cells; assay: SMN2 minigene mRNA splicing RT-qPCR assay in cultured cells; assay type: cell-based, human; conditions: Homo sapiens, HEK293-H; concentration increasing full length SMN2 mRNA 1.5-fold relative to vehicle-treated cells; HEK293H cells with SMN2-A minigene, 24 hours, 7-point concentration data; read-out: EC1.5x for production of full length SMN2 mRNA

Compound: COc1ccc(-c2cc(=O)n3cc(N4CCN(C)CC4)cc(C)c3n2)cc1OC [Compound 344]
EC (1.5-fold increase): 0.1 to 0.3 µM

Entry Cn1cc2cc(-c3cc(=O)n4nc(C5CCNCC5)ccc4n3)ccc2n1 [Compound 521] needs its EC (1.5-fold increase) filled in; supply it.
0.1 to 0.3 µM

Entry Cc1cn2nc(-c3cc(=O)n4cc(N5CCN6CCC[C@@H]6C5)cc(C)c4n3)cc2c(C)n1 [Compound 458] needs its EC (1.5-fold increase) filled in; supply it.
< 0.1 µM

Entry O=c1cc(-c2ccc(O)c(OC(F)(F)F)c2)nc2ccc(N3CCNCC3)cn12 [Cpd 82] needs its EC (1.5-fold increase) filled in; supply it.
1 to 3 µM

Entry Cn1ncc2cc(-c3cc(=O)n4cc(C5CCNCC5)ccc4n3)ccc21 [Cpd 603] needs its EC (1.5-fold increase) filled in; supply it.
0.1 to 0.3 µM

Entry CCN1CC=C(c2ccc3nc(-c4ccc(OC)c(OC)c4)cc(=O)n3c2)CC1 [Compound 370] needs its EC (1.5-fold increase) filled in; supply it.
0.1 to 0.3 µM

Entry CCc1nc(C)cn2nc(-c3cc(=O)n4cc(OCCN(C)C)ccc4n3)cc12 [Compound 830] needs its EC (1.5-fold increase) filled in; supply it.
< 0.1 µM

Entry COc1ccc(-c2cc(=O)n3cc(C4=CCN(CCO)CC4)cc(C)c3n2)cc1OC [Compound 346] needs its EC (1.5-fold increase) filled in; supply it.
< 0.1 µM

Entry Cc1cn2nc(-c3cc(=O)n4cc(N5CCN(C)CC5)ccc4n3)cc2c(O)n1 [Cpd 626] needs its EC (1.5-fold increase) filled in; supply it.
0.3 to 1 µM

Entry COc1ccc(-c2cc(=O)n3cc(N4CCN5CCC[C@H]5C4)cc(C)c3n2)cc1OC [Compound 417] needs its EC (1.5-fold increase) filled in; supply it.
0.1 to 0.3 µM

Entry Cc1nc2ccc(-c3cc(=O)n4cc(N5C[C@H]6CN(C)C[C@H]6C5)ccc4n3)cc2o1 [Compound 267] needs its EC (1.5-fold increase) filled in; supply it.
< 0.1 µM

Entry Cc1cn2cc(-c3cc(=O)n4cc(C5CCN(CCO)CC5)ncc4n3)cc(Cl)c2n1 [Compound 599] needs its EC (1.5-fold increase) filled in; supply it.
< 0.1 µM
